- Subject Of Test: Tyrosine-protein kinase Lck (Homo sapiens, UniProt P06239)
- Sequence (P06239 whole entry): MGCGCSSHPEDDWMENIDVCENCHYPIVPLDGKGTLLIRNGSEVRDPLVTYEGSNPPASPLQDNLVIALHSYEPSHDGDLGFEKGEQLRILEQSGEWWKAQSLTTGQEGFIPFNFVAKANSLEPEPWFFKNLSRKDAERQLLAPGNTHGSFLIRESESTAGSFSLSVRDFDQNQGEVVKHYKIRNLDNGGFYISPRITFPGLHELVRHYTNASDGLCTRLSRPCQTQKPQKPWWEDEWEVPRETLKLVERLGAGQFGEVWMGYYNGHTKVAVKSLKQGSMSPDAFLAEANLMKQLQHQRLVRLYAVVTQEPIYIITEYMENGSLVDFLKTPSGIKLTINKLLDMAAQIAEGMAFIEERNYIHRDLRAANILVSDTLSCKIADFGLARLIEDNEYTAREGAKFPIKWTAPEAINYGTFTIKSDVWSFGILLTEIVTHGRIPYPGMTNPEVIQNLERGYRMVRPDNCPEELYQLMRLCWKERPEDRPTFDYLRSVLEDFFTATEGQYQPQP
Quantity Name: pIC50
Here pIC50 is given on a logarithmic scale as minus log10 of the concentration in mol/L.

Given the molecule COc1ccccc1-n1c(-c2cc(O)ccc2C)cn2c3c(=O)[nH]c(=O)n(C)c3nc12 , write its reported pIC50.
8.89

###

This section lists IC50 readings for Proto-oncogene tyrosine-protein kinase Src (Homo sapiens, UniProt P12931).
Record the value in nM, omitting the unit from your answer.

# Entry Smiles, Unit Annotation, IC50
records = [
    ("CCCCn1c(-c2ccccc2C)cn2c3c(=O)[nH]c(=O)n(C)c3nc12", "nM", 71),
]

Find the measured IC50 of COc1ccccc1-n1c(-c2cc(O)ccc2C)cn2c3c(=O)[nH]c(=O)n(C)c3nc12 with Proto-oncogene tyrosine-protein kinase Src (Homo sapiens, UniProt P12931) as test system.
Sequence (P12931 2-536 limits assumed): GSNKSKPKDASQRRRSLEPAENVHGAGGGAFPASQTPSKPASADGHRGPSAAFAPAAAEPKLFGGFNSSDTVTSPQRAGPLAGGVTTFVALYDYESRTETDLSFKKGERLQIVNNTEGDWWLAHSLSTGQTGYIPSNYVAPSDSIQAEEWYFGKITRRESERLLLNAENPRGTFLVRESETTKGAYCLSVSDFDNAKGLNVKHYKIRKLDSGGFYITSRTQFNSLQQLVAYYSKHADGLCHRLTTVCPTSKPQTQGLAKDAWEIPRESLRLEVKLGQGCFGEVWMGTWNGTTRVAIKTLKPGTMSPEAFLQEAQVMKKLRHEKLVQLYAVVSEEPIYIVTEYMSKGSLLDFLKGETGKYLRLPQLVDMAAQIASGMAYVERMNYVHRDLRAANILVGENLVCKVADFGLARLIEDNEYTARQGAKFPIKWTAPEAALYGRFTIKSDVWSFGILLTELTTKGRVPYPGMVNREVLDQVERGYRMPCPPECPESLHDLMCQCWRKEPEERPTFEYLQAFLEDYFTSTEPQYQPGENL
1.14

###

- Subject Of Test: Ephrin type-B receptor 4 (Homo sapiens) (UniProt P54760)
- Sequence (whole entry): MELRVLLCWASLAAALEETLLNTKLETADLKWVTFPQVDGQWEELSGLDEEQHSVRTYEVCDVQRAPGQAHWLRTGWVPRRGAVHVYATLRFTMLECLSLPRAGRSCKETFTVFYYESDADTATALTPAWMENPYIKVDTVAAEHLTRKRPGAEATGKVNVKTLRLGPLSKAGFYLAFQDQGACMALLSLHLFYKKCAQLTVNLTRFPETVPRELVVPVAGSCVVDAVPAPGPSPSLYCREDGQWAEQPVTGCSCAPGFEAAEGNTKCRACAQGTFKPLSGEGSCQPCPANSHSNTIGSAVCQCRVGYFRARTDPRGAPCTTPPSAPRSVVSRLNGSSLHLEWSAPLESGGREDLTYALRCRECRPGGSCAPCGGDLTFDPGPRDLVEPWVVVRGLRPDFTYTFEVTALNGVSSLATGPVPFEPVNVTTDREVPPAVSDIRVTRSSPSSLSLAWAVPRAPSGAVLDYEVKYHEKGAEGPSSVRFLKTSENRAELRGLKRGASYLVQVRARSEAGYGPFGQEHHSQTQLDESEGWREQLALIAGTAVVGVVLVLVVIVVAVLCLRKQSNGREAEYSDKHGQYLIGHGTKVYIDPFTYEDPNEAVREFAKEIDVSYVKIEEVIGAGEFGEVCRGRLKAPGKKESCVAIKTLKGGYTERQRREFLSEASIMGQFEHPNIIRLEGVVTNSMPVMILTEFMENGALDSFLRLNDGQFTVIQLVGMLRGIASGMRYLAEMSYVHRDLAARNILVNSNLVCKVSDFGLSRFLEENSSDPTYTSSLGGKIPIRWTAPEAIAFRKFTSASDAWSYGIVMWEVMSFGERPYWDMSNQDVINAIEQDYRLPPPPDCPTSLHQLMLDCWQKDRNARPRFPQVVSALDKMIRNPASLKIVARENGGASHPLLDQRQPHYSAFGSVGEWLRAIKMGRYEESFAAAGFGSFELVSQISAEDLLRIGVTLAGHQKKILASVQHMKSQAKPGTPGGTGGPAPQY
- Assay Remarks: Inhibition of EphB4 (unknown origin) transfected in CHO cells using Z'-LYTE TYR-1 peptide as substrate at 10 uM after 2 hrs by FRET assay
- Type: cell-based
Quantity Name: inhibition (%)
Answer format: numeric, % implied, no suffix.

Find the measured inhibition of COc1ccccc1-n1c(-c2cccc(Cl)c2)cn2c3c(=O)[nH]c(=O)n(C)c3nc12 and report it.
12

Fill in inhibition for record CCCCn1c(-c2ccccc2C(F)(F)F)cn2c3c(=O)[nH]c(=O)n(C)c3nc12
15

Write down inhibition measured for item CCCCn1c(-c2cccc(Cl)c2)cn2c3c(=O)[nH]c(=O)n(C)c3nc12
22

Identify the reported inhibition for the following entry. CCCCn1c(-c2c(C)cccc2C)cn2c3c(=O)[nH]c(=O)n(C)c3nc12
49

###

Recorded recovery at 2 h values for a group of compounds are listed next.
- Assay Remarks: Permeability from apical to basolateral side in human Caco2 cells assessed as compound recovery after 2 hrs by LC-MS/MS analysis
- Format: ADME, cell-based
- Particulars: Caco-2, read-out: permeability
Reply numerically in %, unit not repeated.

Worked cases, recovery at 2 h given:
# Entry Smiles, Unit Annotation, recovery at 2 h
records = [
    ("COc1ccccc1-n1c(-c2ccccc2)cn2c3c(=O)[nH]c(=O)n(C)c3nc12", "%", 71),
    ("COc1ccccc1-n1c(-c2cc(O)ccc2C)cn2c3c(=O)[nH]c(=O)n(C)c3nc12", "%", 51),
    ("CCCCn1c(-c2ccccc2C)cn2c3c(=O)[nH]c(=O)n(C)c3nc12", "%", 85),
]

// moving on: another record for recovery at 2 h
Output measured recovery at 2 h for this item: CCCCn1c(-c2ccccc2)cn2c3c(=O)[nH]c(=O)n(C)c3nc12
69

###

- Subject Of Test: Tyrosine-protein kinase ABL1 (Homo sapiens)
- Sequence (P00519 whole entry): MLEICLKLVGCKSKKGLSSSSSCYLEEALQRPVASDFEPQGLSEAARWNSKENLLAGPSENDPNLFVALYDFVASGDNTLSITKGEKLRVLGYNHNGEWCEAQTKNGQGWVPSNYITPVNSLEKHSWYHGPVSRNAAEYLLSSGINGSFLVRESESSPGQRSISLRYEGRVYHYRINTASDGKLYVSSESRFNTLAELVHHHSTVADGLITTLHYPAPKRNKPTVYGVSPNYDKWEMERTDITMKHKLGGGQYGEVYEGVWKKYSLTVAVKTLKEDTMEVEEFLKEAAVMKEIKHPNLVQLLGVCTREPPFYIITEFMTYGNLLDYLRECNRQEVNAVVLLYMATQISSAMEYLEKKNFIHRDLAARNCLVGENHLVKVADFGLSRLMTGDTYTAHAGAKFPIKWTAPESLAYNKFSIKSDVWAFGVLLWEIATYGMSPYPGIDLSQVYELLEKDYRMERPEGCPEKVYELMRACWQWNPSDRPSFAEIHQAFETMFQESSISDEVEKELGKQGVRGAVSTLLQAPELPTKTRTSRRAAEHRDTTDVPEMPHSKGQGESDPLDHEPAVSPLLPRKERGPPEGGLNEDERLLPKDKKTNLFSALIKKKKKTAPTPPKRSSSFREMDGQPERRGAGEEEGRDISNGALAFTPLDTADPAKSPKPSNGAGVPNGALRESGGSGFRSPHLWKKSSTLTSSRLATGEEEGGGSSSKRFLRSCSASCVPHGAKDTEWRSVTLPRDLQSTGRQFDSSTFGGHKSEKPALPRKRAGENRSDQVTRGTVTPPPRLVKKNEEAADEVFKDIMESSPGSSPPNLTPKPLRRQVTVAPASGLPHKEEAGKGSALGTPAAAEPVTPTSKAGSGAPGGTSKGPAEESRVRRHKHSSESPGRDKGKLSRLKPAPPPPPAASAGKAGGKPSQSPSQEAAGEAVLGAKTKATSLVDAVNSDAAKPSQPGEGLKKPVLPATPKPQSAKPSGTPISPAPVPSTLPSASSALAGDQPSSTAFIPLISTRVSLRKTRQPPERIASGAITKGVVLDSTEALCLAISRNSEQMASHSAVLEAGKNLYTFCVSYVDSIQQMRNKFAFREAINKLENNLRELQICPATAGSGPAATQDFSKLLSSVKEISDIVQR
Quantity Name: pIC50
Friendly reminder that pIC50 comes from taking -log10 of the concentration in mol/L.

For Tyrosine-protein kinase ABL1 (Homo sapiens), give the measured pIC50 of the entry CCCCn1c(-c2ccccc2C)cn2c3c(=O)[nH]c(=O)n(C)c3nc12
6.24

###

- Assay Remarks: Cytotoxicity against human LXFA 983L cells after 4 days by propidium iodide staining
- Particulars: 96 h
Please note: IC50 exactly at 3 µM is f. Only values below 3 µM get t.

# Molecule, Category
measured = [
    ("Cc1nc(Nc2ncc(C(=O)Nc3c(C)cccc3Cl)s2)cc(N2CCN(CCO)CC2)n1 [DASATINIB]", "t"),
    ("CCCCCn1c(-c2ccccc2C)cn2c3c(=O)[nH]c(=O)n(C)c3nc12", "t"),
    ("CCCCn1c(-c2ccccc2Cl)cn2c3c(=O)[nH]c(=O)n(C)c3nc12", "t"),
    ("COc1ccccc1-n1c(-c2cc(O)ccc2C)cn2c3c(=O)[nH]c(=O)n(C)c3nc12", "f"),
    ("CCCCn1c(-c2ccccc2C)cn2c3c(=O)[nH]c(=O)n(C)c3nc12", "f"),
]

Switching to the query record.
Lab note: IC50 threshold 3 µM. Does this molecule come in strictly under it? CCCCn1c(-c2ccc(F)cc2C)cn2c3c(=O)[nH]c(=O)n(C)c3nc12
f

###

- Assay Remarks: Apparent permeability from basolateral to apical side in human Caco2 cells after 2 hrs by LC-MS/MS analysis
- Type: ADME, cell-based
- Particulars: Caco-2
Quantity Name: Papp B→A at 2 h

Example results:
# Entry Smiles, Papp B→A at 2 h
rows = [
    ("CCCCn1c(-c2ccccc2C)cn2c3c(=O)[nH]c(=O)n(C)c3nc12", "28.1 ×10⁻⁶ cm/s"),
    ("CCCCn1c(-c2ccccc2)cn2c3c(=O)[nH]c(=O)n(C)c3nc12", "42.5 ×10⁻⁶ cm/s"),
    ("COc1ccccc1-n1c(-c2ccccc2)cn2c3c(=O)[nH]c(=O)n(C)c3nc12", "35.8 ×10⁻⁶ cm/s"),
]

Let us examine a further case.
Look up and report measured Papp B→A at 2 h for this entry: COc1ccccc1-n1c(-c2cc(O)ccc2C)cn2c3c(=O)[nH]c(=O)n(C)c3nc12
23 ×10⁻⁶ cm/s

###

The following compounds are shown together with reported recovery at 2 h values.
- Assay Remarks: Permeability from basolateral to apical side in human Caco2 cells assessed as compound recovery after 2 hrs by LC-MS/MS analysis
- Type: ADME, cell-based
- Particulars: Caco-2, read-out: permeability
The answer is to be given in %; state only the numeric part.

# example entries with known answers
# Entry Smiles, recovery at 2 h / %
measured = [
    ("CCCCn1c(-c2ccccc2C)cn2c3c(=O)[nH]c(=O)n(C)c3nc12", 89),
    ("COc1ccccc1-n1c(-c2cc(O)ccc2C)cn2c3c(=O)[nH]c(=O)n(C)c3nc12", 74),
    ("CCCCn1c(-c2ccccc2)cn2c3c(=O)[nH]c(=O)n(C)c3nc12", 78),
]

Let us examine a further case.
Determine from records and report recovery at 2 h for COc1ccccc1-n1c(-c2ccccc2)cn2c3c(=O)[nH]c(=O)n(C)c3nc12
76

###

- Subject Of Test: Ephrin type-B receptor 4 (Homo sapiens, UniProt P54760)
- Assay Remarks: Inhibition of EphB4 (unknown origin) transfected in CHO cells using Z'-LYTE TYR-1 peptide as substrate after 2 hrs by FRET assay
- Type: cell-based
Quantity Name: IC50 (nM)
Answer in nM, number only, no unit symbol.

Answer with the recorded IC50 for the compound listed here: CCCCn1c(-c2ccccc2C)cn2c3c(=O)[nH]c(=O)n(C)c3nc12
56

###

- Assay Remarks: Cytotoxicity against human GXF251L cells after 4 days by propidium iodide staining
- Particulars: GXF 251L, 96 h
pIC50: −log10 of the molar value.
Outcome label depends on pIC50 relative to 5: at/above gives T, below gives F.

Record excerpt, results attached:
# Compound, Category
measured = [
    ("CCCCCn1c(-c2ccccc2C)cn2c3c(=O)[nH]c(=O)n(C)c3nc12", "T"),
    ("CCCCn1c(-c2ccccc2Cl)cn2c3c(=O)[nH]c(=O)n(C)c3nc12", "F"),
    ("CCCCn1c(-c2ccc(F)cc2C)cn2c3c(=O)[nH]c(=O)n(C)c3nc12", "F"),
    ("COc1ccccc1-n1c(-c2cc(O)ccc2C)cn2c3c(=O)[nH]c(=O)n(C)c3nc12", "F"),
    ("CCCCn1c(-c2ccccc2C)cn2c3c(=O)[nH]c(=O)n(C)c3nc12", "F"),
]

Now for another entry.
Hi team, for Cc1nc(Nc2ncc(C(=O)Nc3c(C)cccc3Cl)s2)cc(N2CCN(CCO)CC2)n1 [DASATINIB] , is the recorded pIC50 at or above 5?
T
